# Test system: SF-295
# EXPERIMENT_NOTES: Antiproliferative activity against human SF295 cells
# Assay type: functional, cell-based
Where a name gives a salt, the structure may show the parent alone.
IC50 strictly under 20 nM means yes (1); at 20 nM or over means no (0).

// known answers, use as guide
- MOLECULE: "C=C(C)CN1CCO[C@@H](C[C@H]2O[C@H]3C[C@H]4O[C@@H](CC[C@@H]5O[C@@H](CC[C@@]67C[C@H]8O[C@H]9[C@@H](O6)[C@H]6O[C@H](CC[C@@H]6O[C@H]9[C@H]8O7)CC(=O)C[C@@H]3[C@H]2OC)CC5=C)C[C@@H](C)C4=C)C1"
  SYSTEM_TESTED: "SF-295"
  CATEGORY_LABEL: "yes (1)"
- MOLECULE: "C=C1C[C@@H]2CC[C@@]34C[C@H]5O[C@H]6[C@@H](O3)[C@H]3O[C@H](CC[C@@H]3O[C@H]6[C@H]5O4)CC(=O)C[C@@H]3[C@@H](OC)[C@@H](C[C@@H](CN4CC(C)CC(C)C4)OC)O[C@H]3C[C@H]3O[C@@H](CC[C@@H]1O2)C[C@@H](C)C3=C (stereo not given in full)"
  SYSTEM_TESTED: "SF-295"
  CATEGORY_LABEL: "yes (1)"
- MOLECULE: "C=C1C[C@@H]2CC[C@@]34C[C@H]5O[C@H]6[C@@H](O3)[C@H]3O[C@H](CC[C@@H]3O[C@H]6[C@H]5O4)CC(=O)C[C@@H]3[C@@H](OC)[C@@H](C[C@H](O)CN)O[C@H]3C[C@H]3O[C@@H](CC[C@@H]1O2)C[C@@H](C)C3=C [ERIBULIN MESYLATE]"
  SYSTEM_TESTED: "SF-295"
  CATEGORY_LABEL: "no (0)"
- MOLECULE: "CC(=O)O[C@H]1C(=O)[C@@]2(C)[C@H]([C@H](OC(=O)c3ccccc3)[C@]3(O)C[C@H](OC(=O)[C@H](O)[C@@H](NC(=O)c4ccccc4)c4ccccc4)C(C)=C1C3(C)C)[C@]1(OC(C)=O)CO[C@@H]1C[C@@H]2O"
  SYSTEM_TESTED: "SF-295"
  CATEGORY_LABEL: "no (0)"

Next item in the queue.
Prompt: I'd appreciate it if you could check whether C#CCN(C)C[C@H](C[C@H]1O[C@H]2C[C@H]3O[C@@H](CC[C@@H]4O[C@@H](CC[C@@]56C[C@H]7O[C@H]8[C@@H](O5)[C@H]5O[C@H](CC[C@@H]5O[C@H]8[C@H]7O6)CC(=O)C[C@@H]2[C@H]1OC)CC4=C)C[C@@H](C)C3=C)OC has IC50 smaller than 20 nM.
Completion: yes (1)

---

# Tested on: Mus musculus
# EXPERIMENT_NOTES: AUC (0 to infinity) in BALB/c mouse at 5 mg/kg, iv
# Assay type: ADME, organism-based, Brain
# Set-up: time infinity, dose 5 mg/kg, route intravenous
# PARTICULARS: in vivo
Where a name gives a salt, the structure may show the parent alone.
Simple rule here: AUC less than 3000 ng·h/g is fulfilled, otherwise not fulfilled.

- COMPOUND: "C=C1C[C@@H]2CC[C@@]34C[C@H]5O[C@H]6[C@@H](O3)[C@H]3O[C@H](CC[C@@H]3O[C@H]6[C@H]5O4)CC(=O)C[C@@H]3[C@@H](OC)[C@@H](CCCN4CCOCC4)O[C@H]3C[C@H]3O[C@@H](CC[C@@H]1O2)C[C@@H](C)C3=C"
  SYSTEM_TESTED: "Mus musculus"
  CATEGORY_LABEL: "not fulfilled"
- COMPOUND: "C=C1C[C@@H]2CC[C@@]34C[C@H]5O[C@H]6[C@@H](O3)[C@H]3O[C@H](CC[C@@H]3O[C@H]6[C@H]5O4)CC(=O)C[C@@H]3[C@@H](OC)[C@@H](C[C@@H](CN4CC(C)CC(C)C4)OC)O[C@H]3C[C@H]3O[C@@H](CC[C@@H]1O2)C[C@@H](C)C3=C (stereo not given in full)"
  SYSTEM_TESTED: "Mus musculus"
  CATEGORY_LABEL: "not fulfilled"
- COMPOUND: "C=C(C)CN1CCO[C@@H](C[C@H]2O[C@H]3C[C@H]4O[C@@H](CC[C@@H]5O[C@@H](CC[C@@]67C[C@H]8O[C@H]9[C@@H](O6)[C@H]6O[C@H](CC[C@@H]6O[C@H]9[C@H]8O7)CC(=O)C[C@@H]3[C@H]2OC)CC5=C)C[C@@H](C)C4=C)C1"
  SYSTEM_TESTED: "Mus musculus"
  CATEGORY_LABEL: "fulfilled"

Prompt: Strictly below 3000 ng·h/g in AUC? C=C1C[C@@H]2CC[C@@]34C[C@H]5O[C@H]6[C@@H](O3)[C@H]3O[C@H](CC[C@@H]3O[C@H]6[C@H]5O4)CC(=O)C[C@@H]3[C@@H](OC)[C@@H](C[C@@H](CN4CCOCC4)OC)O[C@H]3C[C@H]3O[C@@H](CC[C@@H]1O2)C[C@@H](C)C3=C
Completion: fulfilled

Prompt: Input C=C1C[C@@H]2CC[C@@]34C[C@H]5O[C@H]6[C@@H](O3)[C@H]3O[C@H](CC[C@@H]3O[C@H]6[C@H]5O4)CC(=O)C[C@@H]3[C@@H](OC)[C@@H](C[C@H](O)CN)O[C@H]3C[C@H]3O[C@@H](CC[C@@H]1O2)C[C@@H](C)C3=C [ERIBULIN MESYLATE] ; condition: AUC strictly below 3000 ng·h/g. Does it hold?
Completion: fulfilled
